Source: ChEMBL document CHEMBL1145873

target: Tyrosine-protein phosphatase non-receptor type 1 (Homo sapiens, UniProt P18031); test: Inhibitory concentration towards recombinant human Protein-tyrosine phosphatase 1B was determined
Sequence (P18031 whole entry): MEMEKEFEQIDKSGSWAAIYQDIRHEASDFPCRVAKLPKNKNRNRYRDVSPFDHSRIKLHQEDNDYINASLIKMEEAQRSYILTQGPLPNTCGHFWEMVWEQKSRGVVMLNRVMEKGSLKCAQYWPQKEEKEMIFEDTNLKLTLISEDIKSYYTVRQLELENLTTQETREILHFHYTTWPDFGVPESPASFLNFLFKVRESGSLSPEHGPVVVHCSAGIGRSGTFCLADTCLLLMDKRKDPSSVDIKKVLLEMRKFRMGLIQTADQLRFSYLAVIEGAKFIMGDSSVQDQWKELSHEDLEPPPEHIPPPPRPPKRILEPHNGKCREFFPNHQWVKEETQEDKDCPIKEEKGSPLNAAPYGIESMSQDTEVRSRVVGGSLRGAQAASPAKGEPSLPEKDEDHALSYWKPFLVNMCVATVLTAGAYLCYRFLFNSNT
pIC50: −log10 of the molar value.
pIC50 by entry:
METRIC NAME: pIC50

> print(dat)
                                   compound  metric.name  data.value
1  O=C(NS(=O)(=O)c1ccccc1)c1ccc2cc(C(F)(F)P(=O)(O)O)ccc2c1        pIC50        4.52
2  CCCCCCCCCC(=O)Nc1ccc(S(=O)(=O)NC(=O)c2ccc3cc(C(F)(F)P(=O)(O)O)ccc3c2)cc1        pIC50        4.74
3  C[C@@H]1CCC[C@H](C)N1NC(=O)c1ccc(Cl)c(S(=O)(=O)NC(=O)c2ccc3cc(C(F)(F)P(=O)(O)O)ccc3c2)c1        pIC50        4.72
4  CS(=O)(=O)NC(=O)c1ccc2cc(C(F)(F)P(=O)(O)O)ccc2c1        pIC50        4.39
5  CCCCCCCCCCCCCCCCOc1ccc(S(=O)(=O)NC(=O)c2ccc3cc(C(F)(F)P(=O)(O)O)ccc3c2)cc1[N+](=O)[O-]        pIC50        6.46
6  O=C(NS(=O)(=O)c1cc(C2(O)NC(=O)c3ccccc32)ccc1Cl)c1ccc2cc(C(F)(F)P(=O)(O)O)ccc2c1 (centres undefined)        pIC50        4.60
7  CCN1CCCC1CNC(=O)c1cc(S(=O)(=O)NC(=O)c2ccc3cc(C(F)(F)P(=O)(O)O)ccc3c2)ccc1OC (centres undefined)        pIC50        4.34
8  O=C(NS(=O)(=O)Cc1ccccc1)c1ccc2cc(C(F)(F)P(=O)(O)O)ccc2c1        pIC50        4.62
9  CC1Cc2ccccc2N1NC(=O)c1ccc(Cl)c(S(=O)(=O)NC(=O)c2ccc3cc(C(F)(F)P(=O)(O)O)ccc3c2)c1 (centres undefined)        pIC50        4.70
